TEST_TARGET: factor D (Homo sapiens, UniProt P00746)
Construct: made in house; host or cells: E. coli
Sequence (P00746 26-253): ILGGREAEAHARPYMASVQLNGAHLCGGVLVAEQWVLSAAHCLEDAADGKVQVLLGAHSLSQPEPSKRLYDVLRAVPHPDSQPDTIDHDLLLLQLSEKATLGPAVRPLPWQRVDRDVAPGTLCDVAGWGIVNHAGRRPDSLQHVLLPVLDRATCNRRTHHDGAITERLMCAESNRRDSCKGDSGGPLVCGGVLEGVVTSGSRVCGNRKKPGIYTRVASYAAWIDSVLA
EXPERIMENTAL_PROTOCOL: factor D inhibition assay of Biological Example 2
Assay type: biochemical
REPORTED_PROPERTY: IC50 (nM)

Would you please look over these solved cases?
[
  {
    "COMPOUND": "N[C@H](CO)c1cccc(-c2cc(COc3ccccc3CC(=O)O)cc(OCC3CC3)c2)c1",
    "UNIT_NAME": "nM",
    "IC50": 5
  },
  {
    "COMPOUND": "NCc1cc(F)cc(-c2cc(C(=O)Nc3ccccc3CC(=O)O)cc(N3CCOCC3)c2)c1",
    "UNIT_NAME": "nM",
    "IC50": 55
  }
]

[I] C[C@@H](N)c1cccc(-c2cc(COc3ccccc3CC(=O)O)cc(NCC(F)(F)F)c2)c1F
[II] COC(C)c1cc(COc2ccccc2CC(=O)O)cc(-c2cccc([C@@H](C)N)c2)c1 (mixture of isomers)
Between I and II , whose recorded IC50 is greater? Bench note: the answer is the label of the chosen record.
II

[1] NCc1cc(F)cc(-c2nc(C(=O)Nc3ccccc3CC(=O)O)c(Cl)s2)c1
[2] COc1cc(COc2ccccc2CC(=O)O)cc(-c2cccc(CN)c2)c1
[3] N[C@H](CC1CC1)c1cccc(-c2cccc(COc3ccccc3CC(=O)O)c2)c1
Please order the records by their reported IC50, lowest number first. The response must list the labels following the requested ordering.
2, 1, 3
(2: 13 nM, 1: 31 nM, 3: 239 nM)

Where do these numbers come from? They come from patent US20160145247A1.
